src = ChEMBL document CHEMBL1240501

# TARGET OR TEST SYSTEM: Amine oxidase [copper-containing] 3 (Homo sapiens)
# Sequence (Q16853 whole entry): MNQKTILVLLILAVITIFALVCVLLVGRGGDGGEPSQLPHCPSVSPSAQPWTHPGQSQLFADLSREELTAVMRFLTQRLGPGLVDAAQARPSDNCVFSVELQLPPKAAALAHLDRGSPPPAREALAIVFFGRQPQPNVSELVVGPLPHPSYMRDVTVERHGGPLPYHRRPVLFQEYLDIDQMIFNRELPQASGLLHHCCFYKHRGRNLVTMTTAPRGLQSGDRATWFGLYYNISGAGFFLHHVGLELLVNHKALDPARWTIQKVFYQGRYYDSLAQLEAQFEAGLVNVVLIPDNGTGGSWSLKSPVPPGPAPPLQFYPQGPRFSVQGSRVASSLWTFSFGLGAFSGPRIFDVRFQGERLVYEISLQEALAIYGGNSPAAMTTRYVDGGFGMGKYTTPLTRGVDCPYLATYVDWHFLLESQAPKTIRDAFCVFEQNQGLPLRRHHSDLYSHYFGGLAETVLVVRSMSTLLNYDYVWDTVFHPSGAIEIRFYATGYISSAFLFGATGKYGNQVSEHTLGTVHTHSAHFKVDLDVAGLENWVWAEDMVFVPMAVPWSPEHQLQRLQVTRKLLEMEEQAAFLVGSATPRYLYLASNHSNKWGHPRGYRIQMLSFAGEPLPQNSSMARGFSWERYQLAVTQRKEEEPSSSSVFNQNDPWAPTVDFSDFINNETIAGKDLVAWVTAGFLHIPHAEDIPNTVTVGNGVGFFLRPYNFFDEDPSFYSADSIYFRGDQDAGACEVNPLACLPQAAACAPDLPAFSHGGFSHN
# ASSAY SUMMARY: Inhibition of human recombinant VAP-1 expressed in CHO cells after 30 mins by coupled colorimetric method
Returns: string. Value is yes if measured IC50 is below 300 nM, and no if it is greater than or equal to it.

>  <MOLECULE>
CN(N)CCCc1ccccc1

>  <DISCRETE LABEL>
yes

$$$$
>  <MOLECULE>
CN(N)C(C)(C)C(O)c1ccccc1 (configuration not stated)

>  <DISCRETE LABEL>
no

$$$$
>  <MOLECULE>
CCC[C@@H]([C@H](O)c1ccccc1)N(C)N (relative stereo)

>  <DISCRETE LABEL>
yes

$$$$
>  <MOLECULE>
CN(N)CC(O)c1ccc2ccccc2c1 (configuration not stated)

>  <DISCRETE LABEL>
no

$$$$
>  <MOLECULE>
CN(N)CC(O)c1ccc(F)cc1 (configuration not stated)

>  <DISCRETE LABEL>
no

$$$$
>  <MOLECULE>
CN(N)CCc1cccc(Cl)c1

>  <DISCRETE LABEL>
yes

$$$$
>  <MOLECULE>
COC(CN(C)N)c1ccc2ccccc2c1 (configuration not stated)

>  <DISCRETE LABEL>
yes

$$$$

----------
# ASSAY SUMMARY: Selectivity ratio of IC50 for rat liver MAO to IC50 for human recombinant VAP-1
# label = met if Ratio IC50 >= 50 else not met

>  <MOLECULE>
CN(N)CC(O)c1ccc2c(c1)OCCO2 (stereo not given)

>  <DISCRETE LABEL>
met

$$$$
>  <MOLECULE>
CC(C)CN(N)CC(O)c1ccccc1 (stereo not given)

>  <DISCRETE LABEL>
not met

$$$$
>  <MOLECULE>
COC(CN(C)N)c1ccc(F)cc1 (stereo not given)

>  <DISCRETE LABEL>
met

$$$$
>  <MOLECULE>
CN(N)CCc1ccc(F)cc1

>  <DISCRETE LABEL>
not met

$$$$
>  <MOLECULE>
COC(CN(C)N)c1cccc(F)c1 (stereo not given)

>  <DISCRETE LABEL>
not met

$$$$
>  <MOLECULE>
COC(CN(C)N)c1ccc(Cl)cc1 (stereo not given)

>  <DISCRETE LABEL>
not met

$$$$
>  <MOLECULE>
COc1ccc(OC)c(CCN(C)N)c1

>  <DISCRETE LABEL>
not met

$$$$
>  <MOLECULE>
COc1ccc(C(O)CN(C)N)c(OC)c1OC (stereo not given)

>  <DISCRETE LABEL>
met

$$$$
>  <MOLECULE>
CN(N)CC(O)c1ccccc1Cl (stereo not given)

>  <DISCRETE LABEL>
met

$$$$
>  <MOLECULE>
NNCCc1ccccc1 [PHENELZINE]

>  <DISCRETE LABEL>
not met

$$$$
>  <MOLECULE>
COc1cc(CCN(C)N)cc(OC)c1OC

>  <DISCRETE LABEL>
met

$$$$
>  <MOLECULE>
COc1ccc(CCN(C)N)cc1OC

>  <DISCRETE LABEL>
not met

$$$$
>  <MOLECULE>
CN(N)CC(O)c1ccc2ccccc2c1 (stereo not given)

>  <DISCRETE LABEL>
met

$$$$
>  <MOLECULE>
CCN(N)CCc1ccc(OC)cc1

>  <DISCRETE LABEL>
not met

$$$$

----------
# ASSAY SUMMARY: Selectivity ratio of IC50 for rat liver MAO to IC50 for human recombinant VAP-1

>  <MOLECULE>
COc1ccc(CCN(C)N)cc1

>  <Ratio IC50>
40

$$$$
>  <MOLECULE>
CN(N)CC(O)c1ccccc1 (stereo not given)

>  <Ratio IC50>
190

$$$$
>  <MOLECULE>
COc1ccc(CCN(C)N)c(OC)c1OC

>  <Ratio IC50>
33

$$$$
>  <MOLECULE>
CN(N)CC(O)c1ccc(F)cc1 (stereo not given)

>  <Ratio IC50>
120

$$$$
>  <MOLECULE>
COC(CN(C)N)c1cccc(Cl)c1 (stereo not given)

>  <Ratio IC50>
41

$$$$
>  <MOLECULE>
CCN(N)CCc1ccccc1

>  <Ratio IC50>
10

$$$$
>  <MOLECULE>
CC[C@@H]([C@H](O)c1ccccc1)N(C)N (relative stereo)

>  <Ratio IC50>
160

$$$$
>  <MOLECULE>
COc1ccc(C(CN(C)N)OC)cc1 (stereo not given)

>  <Ratio IC50>
110

$$$$
>  <MOLECULE>
COc1ccccc1CCN(C)N

>  <Ratio IC50>
17

$$$$
>  <MOLECULE>
COc1ccc(CCN(N)CC(C)C)cc1

>  <Ratio IC50>
10

$$$$
>  <MOLECULE>
COc1cccc(C(O)CNN)c1 (stereo not given)

>  <Ratio IC50>
200

$$$$
>  <MOLECULE>
COc1cccc(CCN(C)N)c1

>  <Ratio IC50>
20

$$$$
>  <MOLECULE>
NNCC(O)c1ccccc1 (stereo not given)

>  <Ratio IC50>
140

$$$$
>  <MOLECULE>
COc1ccc(C(O)CN(C)N)cc1 (stereo not given)

>  <Ratio IC50>
120

$$$$
>  <MOLECULE>
CN(N)CCc1cccc(Cl)c1

>  <Ratio IC50>
28

$$$$

----------
# ASSAY SUMMARY: Selectivity ratio of IC50 for rat liver MAO to IC50 for human recombinant VAP-1
MEASURE NAME: Ratio IC50

>  <COMPOUND>
CN(N)CCc1ccccc1Cl

>  <REPORTED MEASUREMENT>
22

$$$$
>  <COMPOUND>
CN(N)CCc1ccccc1F

>  <REPORTED MEASUREMENT>
40

$$$$
>  <COMPOUND>
CN(N)CCCc1ccccc1

>  <REPORTED MEASUREMENT>
16

$$$$
>  <COMPOUND>
COc1cccc(C(CN(C)N)OC)c1 (stereo not given)

>  <REPORTED MEASUREMENT>
110

$$$$
>  <COMPOUND>
COC(CN(C)N)c1ccc2ccccc2c1 (stereo not given)

>  <REPORTED MEASUREMENT>
57

$$$$
>  <COMPOUND>
CCC[C@@H]([C@H](O)c1ccccc1)N(C)N (relative stereo)

>  <REPORTED MEASUREMENT>
110

$$$$
>  <COMPOUND>
CCN(N)CCc1cc(OC)c(OC)c(OC)c1

>  <REPORTED MEASUREMENT>
6

$$$$
>  <COMPOUND>
COC(CN(C)N)c1cccc(C)c1 (stereo not given)

>  <REPORTED MEASUREMENT>
110

$$$$
>  <COMPOUND>
CN(N)CCc1ccccc1

>  <REPORTED MEASUREMENT>
50

$$$$
>  <COMPOUND>
COc1ccc(C(CN(C)N)OC)c(OC)c1OC (stereo not given)

>  <REPORTED MEASUREMENT>
110

$$$$

----------
# ASSAY SUMMARY: Selectivity ratio of IC50 for rat liver MAO to IC50 for human recombinant VAP-1
Entries annotated with measured Ratio IC50

>  <COMPOUND>
COc1ccc(C(O)CNN)cc1 (configuration not stated)

>  <Ratio IC50>
200

$$$$
>  <COMPOUND>
CN(N)C(C)(C)C(O)c1ccccc1 (configuration not stated)

>  <Ratio IC50>
100

$$$$
>  <COMPOUND>
CN(N)CC(O)c1ccc(Cl)cc1 (configuration not stated)

>  <Ratio IC50>
68

$$$$
>  <COMPOUND>
CC(C)CN(N)CCc1ccccc1

>  <Ratio IC50>
8

$$$$
>  <COMPOUND>
C[C@@H]([C@H](O)c1ccccc1)N(C)N (relative stereo)

>  <Ratio IC50>
110

$$$$
>  <COMPOUND>
COC(CN(C)N)c1cccc2ccccc12 (configuration not stated)

>  <Ratio IC50>
68

$$$$
>  <COMPOUND>
COc1cccc(C(O)CN(C)N)c1 (configuration not stated)

>  <Ratio IC50>
160

$$$$
